Collected literature values of Ki measured for UniProtKB P10415.

Please review the following examples before continuing.
{"compound": "CCN(CC)CCOc1ccc(CN(Cc2cccc(CNS(=O)(=O)c3cc(Cl)cc(Cl)c3O)c2)S(=O)(=O)c2cc(Cl)cc(Cl)c2O)cc1", "result": "500 nM"}
{"compound": "CC(C)/N=C(/NC(C)C)N1CCN(c2cccc(CN3O[C@@H](CO)[C@@H]([C@H](C)O)[C@H]3C(=O)NC3C[C@H]4C[C@@H]([C@@H]3C)C4(C)C)c2)CC1 (stereo partly drawn)", "result": "< 800 nM"}
{"compound": "O=C(NS(=O)(=O)c1ccc(N[C@@H](CSc2ccccc2)C[C@H]2CCCN2)c(S(=O)(=O)C(F)(F)F)c1)c1ccc(N2CCC([C@@H](O)c3ccccc3-c3ccc(Cl)cc3)CC2)cc1", "result": "0.07 nM"}
{"compound": "CNC(=O)c1cc(-c2cccc(CN3O[C@@H](CN(C)C)[C@@H]([C@H](C)O)[C@H]3C(=O)N[C@H]3C[C@H]4C[C@@H]([C@@H]3C)C4(C)C)c2OC)cc(N(C)C)c1", "result": "> 9 nM"}
{"compound": "C[C@@H]1[C@@H](NC(=O)[C@@H]2[C@H]([C@H](C)O)[C@H](CO)ON2Cc2cccc(-c3cccc(C(=O)NCCN4CCCC4)c3)c2)C[C@H]2C[C@@H]1C2(C)C", "result": "< 800 nM"}

For each of the compounds below, state Ki.
1. CC(C)CC(CN(C)C)N(Cc1ccccc1)Cc1cccc(CN2OC(CO)C(C(C)O)C2C(=O)NC2CC3CC(C2C)C3(C)C)c1 (stereo not drawn)
2. C[C@H](O)[C@H]1[C@@H](C(=O)NC2C[C@H]3C[C@@H]([C@@H]2C)C3(C)C)N(Cc2cccc(-c3ccc(C(=O)N(C)C)cc3)c2)C[C@@H]1O (stereo partly drawn)
3. COc1c(CN2O[C@@H](CO)[C@@H]([C@H](C)O)[C@H]2C(=O)N[C@H]2C[C@H]3C[C@@H]([C@@H]2C)C3(C)C)cccc1-c1cccc(C(=O)N[C@H](CN(C)C)C2CCCCC2)c1
4. C[C@@H]1[C@@H](NC(=O)[C@@H]2[C@H]([C@H](C)O)[C@H](CO)ON2Cc2cccc(-c3cc(C(=O)N[C@@H](Cc4ccccc4)CN(C)C)cc(N(C)C)c3)c2OCC2CC2)C[C@H]2C[C@@H]1C2(C)C
5. CN(CCc1ccccc1)C(=O)c1ccc(CN(Cc2ccc(F)cc2)S(=O)(=O)c2cc(Cl)cc(Cl)c2O)cc1
6. CCN1CCC[C@@H]1CNC(=O)c1cc(-c2cccc(CN3O[C@@H](CN)[C@@H]([C@H](C)O)[C@H]3C(=O)N[C@H]3C[C@H]4C[C@@H]([C@@H]3C)C4(C)C)c2OC)cc(N(C)C)c1
7. CCOC(=O)c1c(C)oc2c1c(C(c1ccnc(Cl)c1)N1CCOCC1)c(O)c1ccccc12 (stereo not drawn)
8. C[C@@H]1[C@@H](NC(=O)[C@@H]2[C@H]([C@H](C)O)[C@H](CO)ON2Cc2cccc(-c3cccc(C(=O)NCCN(CCO)CCO)c3)c2)C[C@H]2C[C@@H]1C2(C)C

< 800 nM
> 50000 nM
< 800 nM
< 1 nM
250 nM
< 1 nM
> 30000 nM
< 800 nM

State recorded Ki for all listed compounds.
1. CCOc1c(CN2O[C@@H](CO)[C@@H]([C@H](C)O)[C@H]2C(=O)N[C@H]2C[C@H]3C[C@@H]([C@@H]2C)C3(C)C)cccc1-c1cccc(C(=O)N[C@H](CC(C)C)CN(C)C)c1
2. CC(CN(C)C)NC(=O)c1cccc(-c2cccc(CN3O[C@@H](CO)[C@@H]([C@H](C)O)[C@H]3C(=O)N[C@H]3C[C@H]4C[C@@H]([C@@H]3C)C4(C)C)c2)c1 (stereo partly drawn)
3. CCN(CC)CCNC(=O)c1cccc(-c2cccc(CN3O[C@@H](CO)[C@@H]([C@H](C)O)[C@H]3C(=O)N[C@H]3C[C@H]4C[C@@H]([C@@H]3C)C4(C)C)c2)c1
4. CC(C)C[C@@H](CN(C)C)N(Cc1ccccc1)Cc1cccc(CN2O[C@@H](CO)[C@@H]([C@H](C)O)[C@H]2C(=O)NCc2ccccc2)c1
5. CC(C)CC(CN(C)C)N(Cc1cccc(CN2OC(CO)C(C(C)O)C2C(=O)NC2CC3CC(C2C)C3(C)C)c1)Cc1cccc2c1OCO2 (stereo not drawn)
6. CC(C)C[C@@H](CN(C)C)N(Cc1ccccc1)Cc1cccc(CN2O[C@@H](CO)[C@@H]([C@H](C)O)[C@H]2C(=O)NCCCN(C)c2ccccc2)c1
7. COc1c(CN2O[C@@H](CO)[C@@H]([C@H](C)O)[C@H]2C(=O)N[C@H]2C[C@H]3C[C@@H]([C@@H]2C)C3(C)C)cccc1-c1cccc(C(=O)N[C@@H](Cc2ccccc2)CN(C)C)c1
8. O=C(c1ccc(CN(Cc2ccc(F)cc2)S(=O)(=O)c2cc(Cl)cc(Cl)c2O)cc1)N1CCCCC1

< 800 nM
< 800 nM
< 800 nM
800 to 6000 nM
< 800 nM
800 to 6000 nM
< 800 nM
840 nM
